Target: Nuclear receptor subfamily 5 group A member 2 (Homo sapiens)
Experiment: LRH-1 (NR5A2) inverse agonists, retest, confirmation, cell-based, luminescence (AID 651613);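 note: HEK293T cells co-transfected with LRH-1 and StAR promoter luciferase reporter; 0% = vehicle wells and 100% = parental cells lacking receptor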
Conditions: cell-based LRH-1 luciferase reporter, inverse agonism; at 3.6 µM; active compounds read high
REPORTED PROPERTY: inhibition (%)
Hi! Could you send only the number? It should be in %, unit omitted.

Examples from the recorded data:
SMILES STR | TARGET UNDER TEST | inhibition (%)
CC[C@@]1(O)C(=O)OCc2c1cc1n(c2=O)Cc2cc3c(CN(C)C)c(O)ccc3nc2-1 | Nuclear receptor subfamily 5 group A member 2 (Homo sapiens) | 99.7
O=C(Nc1cccnc1)c1ccc([N+](=O)[O-])s1 | Nuclear receptor subfamily 5 group A member 2 (Homo sapiens) | 43.8
COc1ccc(C(=O)Nc2nnc(Cc3cccs3)s2)cc1OC | Nuclear receptor subfamily 5 group A member 2 (Homo sapiens) | 70.7
CCCCCc1ccc(OCCC[n+]2ccccc2)c(CCCCC)c1 | Nuclear receptor subfamily 5 group A member 2 (Homo sapiens) | 83.3

For "CC(C)(C)c1ccc(C(=O)Nc2ccc(CC(=O)O)cc2)o1" on Nuclear receptor subfamily 5 group A member 2 (Homo sapiens), measured inhibition was 52.5

Assay Nuclear receptor subfamily 5 group A member 2 (Homo sapiens), sample "Cc1ccc(C)c(-c2cc(C(=O)N/N=C/c3cccnc3)c3ccccc3n2)c1" , inhibition read: 51.1

For the molecule "CC(=O)Nc1ccc2nc(NC(=O)c3ccc([N+](=O)[O-])o3)sc2c1" , the measured inhibition on Nuclear receptor subfamily 5 group A member 2 (Homo sapiens) was 53.5

###

Target: Oxytocin receptor (Homo sapiens) (UniProt P30559)
Sequence (P30559 whole entry, looked up): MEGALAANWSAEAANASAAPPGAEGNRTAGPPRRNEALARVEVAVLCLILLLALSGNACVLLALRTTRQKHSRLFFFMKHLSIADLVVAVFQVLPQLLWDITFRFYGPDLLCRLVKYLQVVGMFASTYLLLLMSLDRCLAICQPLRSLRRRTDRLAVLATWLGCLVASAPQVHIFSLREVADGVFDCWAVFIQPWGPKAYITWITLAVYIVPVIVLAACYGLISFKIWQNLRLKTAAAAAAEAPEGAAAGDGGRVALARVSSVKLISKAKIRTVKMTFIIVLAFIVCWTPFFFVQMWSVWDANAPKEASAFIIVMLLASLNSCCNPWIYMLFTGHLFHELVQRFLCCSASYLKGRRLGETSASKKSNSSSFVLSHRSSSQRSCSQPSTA
Assay: human OXTR agonists, confirmation, fluorescence, CHO-OTR cells, triplicate (AID 434963);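 note: peak over minimum fluorescence ratio per well during a 100 second FLIPR read; 0% = DMSO alone and 100% = oxytocin high control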
Conditions: Fluo-8 calcium fluorescence, agonist, at 3 µM
The other results are listed elsewhere or left out. Activity calls are given as the source filed them.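 How the source made its calls: active means mean activation above about 20% derived from the earlier single-dose screen (limit read from the data); inactive means the rest.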
Respond using exactly one of the listed classes: yes (1) (active), no (0) (inactive)

Known results for molecules:
SMILES STR | TARGET UNDER TEST | CLASS NAME
CN(C)S(=O)(=O)c1ccc(Oc2ccc(S(=O)(=O)N(C)C)cc2)cc1 | Oxytocin receptor (Homo sapiens) (UniProt P30559) | no (0)
CCOc1cc(/C=C(\C#N)c2nc(-c3cccs3)c(NC(C)=O)s2)ccc1O | Oxytocin receptor (Homo sapiens) (UniProt P30559) | yes (1)
CCc1ccc(-c2nn(-c3ccccc3)cc2CSC(=N)N)cc1 | Oxytocin receptor (Homo sapiens) (UniProt P30559) | no (0)
COc1cc(/C=C2/SC(=S)N(Cc3ccccc3)C2=O)cc(OC)c1O | Oxytocin receptor (Homo sapiens) (UniProt P30559) | yes (1)

Let us examine a further case.
Query string: Check the results log: what was the call for "COc1ccc(NS(=O)(=O)c2ccc(Oc3c(C#N)cccc3C#N)cc2)cc1" ?
Result string: no (0)

###

Test system: transactivating tegument protein VP16 (Human herpesvirus 1)
Assay: VP16 transactivation reporter inhibitors, counter-screen for SRC2 inhibitor project, cell-based, luminescence, single concentration (AID 652007)
Details: cell-based VP16 transactivation luciferase reporter, at 8.9 µM
Active and inactive are the calls of the source. Cut-off read from the data, not from the text of the source: active = inhibition above about 36%; inactive = the rest.
Outcome field: choose from Yes (active), No (inactive)

Below are worked cases with known answers.
MOLECULE | TARGET UNDER TEST | CLASS NAME
CS(=O)(=O)N(Cc1ccccc1Cl)c1ccc(C(=O)NCc2cccnc2)cc1 | transactivating tegument protein VP16 (Human herpesvirus 1) | No
CC(C)(C)C(=O)Nc1cc2nn(-c3ccccc3)nc2cc1Cl | transactivating tegument protein VP16 (Human herpesvirus 1) | Yes
COC(=O)C1=C(C)N(Cc2ccccc2C(F)(F)F)C(=NCc2ccccc2)NC1c1ccc(Cl)cc1 (stereo unspecified) | transactivating tegument protein VP16 (Human herpesvirus 1) | No

Query string: GET /call?item= "Cc1cc(NC(=O)c2ccccc2)c(Cl)cc1N" returns the recorded outcome of this test.
Result string: No

Query string: Assay outcome for "Nc1nc(-c2ccccc2)c(N=Nc2cccnc2)s1" : what was it?
Result string: No

Query string: What call does the record list for "CN(C)S(=O)(=O)c1cccc(NC(=S)N/N=C/c2cc(Br)ccc2O)c1" ?
Result string: No

###

Biological target: Nuclear receptor coactivator 1 (Homo sapiens) (UniProt Q15788)
Sequence (Q15788 whole entry, looked up): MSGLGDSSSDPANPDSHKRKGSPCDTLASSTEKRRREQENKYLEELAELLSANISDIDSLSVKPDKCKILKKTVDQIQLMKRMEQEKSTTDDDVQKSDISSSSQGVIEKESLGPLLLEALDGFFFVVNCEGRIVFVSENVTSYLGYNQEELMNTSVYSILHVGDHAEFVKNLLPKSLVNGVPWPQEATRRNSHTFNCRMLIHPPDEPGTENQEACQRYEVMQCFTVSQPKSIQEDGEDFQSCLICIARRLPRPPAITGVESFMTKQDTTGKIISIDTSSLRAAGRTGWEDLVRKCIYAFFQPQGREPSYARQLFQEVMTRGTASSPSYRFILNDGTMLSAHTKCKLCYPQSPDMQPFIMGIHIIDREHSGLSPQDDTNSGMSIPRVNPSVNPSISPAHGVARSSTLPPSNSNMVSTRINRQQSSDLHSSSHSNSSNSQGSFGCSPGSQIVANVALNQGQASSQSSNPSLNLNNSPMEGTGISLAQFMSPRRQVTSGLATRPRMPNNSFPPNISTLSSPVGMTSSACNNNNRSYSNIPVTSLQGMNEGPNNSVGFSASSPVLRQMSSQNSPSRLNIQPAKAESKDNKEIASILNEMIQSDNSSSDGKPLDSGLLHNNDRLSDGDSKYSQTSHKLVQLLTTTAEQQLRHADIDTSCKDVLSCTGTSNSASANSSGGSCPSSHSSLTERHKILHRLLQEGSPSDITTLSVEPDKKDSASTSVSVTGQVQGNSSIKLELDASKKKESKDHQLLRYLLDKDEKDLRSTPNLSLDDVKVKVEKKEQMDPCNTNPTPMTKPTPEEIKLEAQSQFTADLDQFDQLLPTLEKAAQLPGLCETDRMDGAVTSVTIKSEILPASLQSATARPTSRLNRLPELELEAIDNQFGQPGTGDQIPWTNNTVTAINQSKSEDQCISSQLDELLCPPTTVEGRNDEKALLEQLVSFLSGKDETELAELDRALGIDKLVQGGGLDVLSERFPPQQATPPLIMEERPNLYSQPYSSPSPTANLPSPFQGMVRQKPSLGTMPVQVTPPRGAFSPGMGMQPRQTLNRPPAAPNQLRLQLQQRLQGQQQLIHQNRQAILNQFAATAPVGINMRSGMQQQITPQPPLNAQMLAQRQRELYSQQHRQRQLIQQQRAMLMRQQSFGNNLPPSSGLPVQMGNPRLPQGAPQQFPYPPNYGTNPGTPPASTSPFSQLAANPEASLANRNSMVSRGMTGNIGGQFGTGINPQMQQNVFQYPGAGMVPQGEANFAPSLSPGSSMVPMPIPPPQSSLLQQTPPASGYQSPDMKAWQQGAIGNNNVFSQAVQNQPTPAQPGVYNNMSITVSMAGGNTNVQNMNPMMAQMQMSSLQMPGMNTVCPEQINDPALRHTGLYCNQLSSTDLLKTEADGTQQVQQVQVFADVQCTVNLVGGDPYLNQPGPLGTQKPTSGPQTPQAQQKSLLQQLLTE
Assay: SRC1 coactivator transcriptional activity inhibitors, confirmation, cell-based, luminescence, quadruplicate (AID 588820);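 note: 0% = DMSO wells and 100% = gossypol 36 µM treated wells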
Conditions: HEK293 GAL4-SRC1 luciferase reporter, at 3.6 µM
Calls of active or inactive are those of the source.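 Rule for the calls: active = mean inhibition above 46.68%, the untreated control wells mean plus 3 SD; inactive = the rest.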
A correct response names exactly one class from Y (active), N (inactive)

SMILES STR | CLASS NAME
CC1CCN(C(=O)c2scc3c2OCCO3)CC1 | N
CCC(NC(=O)Nc1nnc(C(F)(F)F)s1)(C(F)(F)F)C(F)(F)F | Y

Query string: // param item: "O=S(=O)(Nc1cc(Sc2ncn[nH]2)c(O)c2ccccc12)c1ccccc1" ; yields the recorded call
Result string: N

Query string: Could you kindly confirm the outcome this assay logged for "CN1CCN(c2ccc(NC(=O)N3CCc4ccccc43)cc2)CC1" ?
Result string: N

Query string: Tell me the assay call for "CC(C)(C)c1cc[n+](C2=C([O-])c3ccccc3C(=O)/C2=N\S(=O)(=O)c2cccs2)cc1" please.
Result string: N

###

Biological target: Nuclear receptor coactivator 2 (Homo sapiens)
Assay: SRC2 coactivator transcriptional activity inhibitors, confirmation, cell-based, luminescence, HEK293, triplicate (AID 652008);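 note: 0% = DMSO-treated cells and 100% = Gossypol at 36 µM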
Details: HEK293 GAL4-SRC2 luciferase reporter, at 8.9 µM, active compounds read high
REPORTED PROPERTY: inhibition (%)
The response must be a number in % with no trailing unit.

Examples with answers:
SMILES STR | TARGET UNDER TEST | inhibition / %
O=C(CCl)N1CCN(S(=O)(=O)Cc2ccccc2)CC1 | Nuclear receptor coactivator 2 (Homo sapiens) | 46.2
Cc1c(CCC(=O)N2CCC[C@H]2C(=O)O)c(=O)oc2c(C)c3oc4c(c3cc12)CCCC4 | Nuclear receptor coactivator 2 (Homo sapiens) | 37.5
N/C(=N\OC(=O)c1ccc2ccccc2c1)c1ccccn1 | Nuclear receptor coactivator 2 (Homo sapiens) | -34.3
Cc1nc(-c2ccc(NC(=O)c3ccco3)cc2)cs1 | Nuclear receptor coactivator 2 (Homo sapiens) | 60.4
CCN(CC)c1ccc(C(=C2C=CC(=[N+](CC)CC)C=C2)c2ccccc2)cc1 | Nuclear receptor coactivator 2 (Homo sapiens) | 99.5

Sample "NC(=O)c1cc2ccncc2c2ccccc12" ; inhibition observed: 68.9

get_value(item= "Cc1ccc(C)c(NC(=O)COc2coc(CN3CCc4ccccc4C3)cc2=O)c1" , readout=inhibition) returns 22.7

// sample "NCCOc1ccc(C2CCCCC2)cc1" , its inhibition was 23

Item: "CC(C)N(C(=O)[C@H]1C[C@H](CC(=O)NCCc2ccccn2)C(=O)N2CCc3c([nH]c4cc(-c5ccco5)ccc34)[C@]12C)C(C)C" | inhibition: -6.81

"COc1ccccc1-c1nnc(Sc2nc([N+](=O)[O-])nn2C)o1" yielded inhibition of 65.3

###

Tested on: transactivating tegument protein VP16 (Human herpesvirus 1)
Test: VP16 transactivation reporter inhibitors, counter-screen for SRC2 inhibitor project, cell-based, luminescence, single concentration (AID 652007)
Conditions: cell-based VP16 transactivation luciferase reporter, at 8.9 µM
Activity calls are given as the source filed them. Cut-off read from the data, not from the text of the source: active = inhibition above about 36%; inactive = the rest.
Result category, one only: 1 (yes) = active, 0 (no) = inactive

MOLECULE | CLASS NAME
CCOc1ccc(C(=O)O/N=C(\N)c2ccccn2)cc1 | 0 (no)
Cc1c(/C(O)=C2/C(=O)C(=O)N(CCN3CCOCC3)C2c2ccccn2)cnn1-c1ccccc1 (centres undefined) | 1 (yes)
CCN(CC)c1ccc(-n2c(C)c(C(C)=O)c(C(C)=O)c2C)cc1 | 0 (no)
COc1ccc(O)c(/C=N/NC(=O)c2ccc(CSc3nc(C)cc(C)n3)cc2)c1 | 0 (no)
COc1ccc(OCCCCn2c(CO)nc3ccccc32)cc1 | 0 (no)
N#CCCN(C(=O)CCl)c1cccc(Cl)c1 | 0 (no)
C=CCc1c(C)nc(SC(C)C)[nH]c1=O | 0 (no)
CNc1ccccc1C(=O)OC(C)C(=O)Nc1ccc(Cl)cn1 (centres undefined) | 0 (no)

Query string: Status in this test for CSC1SCC2C(=O)N(C)C(C(C)C)C(=O)OCC(NC(=O)c3cnc4ccccc4n3)C(=O)NC(C)C(=O)N(C)C1C(=O)N(C)C(C(C)C)C(=O)OCC(NC(=O)c1cnc3ccccc3n1)C(=O)NC(C)C(=O)N2C (centres undefined) ?
Result string: 1 (yes)

Query string: So what was the verdict on "COc1ccccc1-c1cc2nc(-c3ccccc3)cc(N3CCN(C(=O)c4ccco4)CC3)n2n1" in this test?
Result string: 1 (yes)

Query string: Assay outcome for "COc1ccc(/C=C2/SC(=S)N(CCCC(=O)Nc3ccccc3C(=O)O)C2=O)cc1" : what was it?
Result string: 1 (yes)

Query string: Hi team, can someone confirm the assay call for "Cc1sc2ncnc(NC3CCN(Cc4ccccc4)CC3)c2c1C" ?
Result string: 0 (no)

Query string: Identify the outcome logged in this assay for the molecule shown: "O=C(C1=C(c2ccccc2)C(=O)c2ccccc2C1=O)c1ccccc1"
Result string: 1 (yes)

Query string: Assay outcome for "Cn1c(=O)c2c(ncn2CCOc2cccc(Br)c2)n(C)c1=O" : what was it?
Result string: 0 (no)

Query string: Any idea what this test logged for O=C(CCl)N(C1CCCC1)C1CCS(=O)(=O)C1 (centres undefined) ?
Result string: 0 (no)

Query string: Record request — test call for "Cc1c(CCC(=O)NCCCC(=O)O)c(=O)oc2cc3oc4c(c3cc12)CCCC4"
Result string: 1 (yes)

Query string: # outcome recorded in this test, key = "Oc1ccc(N=Nc2ccc3c(c2)OCCO3)c2cccnc12"
Result string: 0 (no)

Query string: Recorded call for "COc1ccc(-n2c(C)c([N+](=O)[O-])c3ccc(O)c(CN(C)C)c32)cc1" ?
Result string: 0 (no)

Query string: Test call for this molecule, please: "CCOc1cc(CNc2ccc3c(c2)OCCO3)cc(Br)c1OC"
Result string: 0 (no)

Query string: Entry CC(Oc1ccc(Cl)cc1Cl)C(=O)NCCCn1ccnc1 (centres undefined) : call = ?
Result string: 0 (no)

Query string: Short answer needed: outcome of this test for "COc1ccc(S(=O)(=O)N2CCCCCC2)cc1C(=O)NCc1ccco1" ?
Result string: 0 (no)
